The following compounds are shown together with reported IC50 values.
Target chain: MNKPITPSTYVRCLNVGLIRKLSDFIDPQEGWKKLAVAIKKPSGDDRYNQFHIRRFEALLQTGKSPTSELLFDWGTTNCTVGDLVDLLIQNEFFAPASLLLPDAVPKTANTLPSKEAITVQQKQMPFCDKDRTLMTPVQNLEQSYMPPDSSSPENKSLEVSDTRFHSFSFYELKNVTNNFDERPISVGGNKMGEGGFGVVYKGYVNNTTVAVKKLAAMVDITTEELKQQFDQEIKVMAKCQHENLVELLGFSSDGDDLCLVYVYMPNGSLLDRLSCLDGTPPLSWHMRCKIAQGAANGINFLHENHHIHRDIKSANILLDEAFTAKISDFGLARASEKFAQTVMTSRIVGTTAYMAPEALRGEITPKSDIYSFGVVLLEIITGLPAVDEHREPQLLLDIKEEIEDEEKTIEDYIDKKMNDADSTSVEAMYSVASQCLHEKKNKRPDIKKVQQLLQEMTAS
observed property: IC50

# compound, value
records = [
    ("CN(C)[C@H]1CC[C@H](Oc2ncnc3sc4c(c23)C[C@@H](CCO)CC4)CC1 [Compound I-111]", "< 5 µM"),
    ("CCS(=O)(=O)N1CCc2sc3ncnc(N[C@H]4CC[C@H](N5CCOCC5)CC4)c3c2C1 [Compound I-181]", "5 to 20 µM"),
    ("CN(C1COC1)[C@H]1CC[C@H](Oc2ncnc3sc4c(c23)[C@@H](CC(N)=O)CC4)CC1 [Compound I-129]", "< 5 µM"),
    ("CN(CC(=O)N1CCCC1)[C@H]1CC[C@H](Oc2ncnc3sc4c(c23)[C@@H](CCC(N)=O)CC4)CC1 [Compound I-94]", "< 5 µM"),
    ("C[C@H](O)C[C@H]1CCc2sc3ncnc(N[C@H]4CC[C@H](N(C)C)CC4)c3c21 [Compound I-55]", "< 5 µM"),
    ("NC(=O)[C@@H](O)C[C@H]1CCc2sc3ncnc(O[C@H]4CC[C@H](N5CCCC5)CC4)c3c21 [Compound I-226]", "< 5 µM"),
    ("CC[C@]1(N(C)C)CC[C@H](Oc2ncnc3sc4c(c23)[C@@H](C[C@H](C)O)CC4)CC1 [Compound I-103]", "5 to 20 µM"),
]

###

# System: hPBMC
# method summary: In vitro LPS/R848/CpG/IL-1β-induced cytokine production assay in hPBMC
# Format: cell-based
# test parameters: Homo sapiens, R848 1 uM, read-out: TNF-α production IC50

# compound, IC50
records = [
    ("NC(=O)[C@@H](O)C[C@H]1CCc2sc3ncnc(O[C@H]4CC[C@H](N5CCOCC5)CC4)c3c21 [Compound I-92]", "≤ 250 nM"),
    ("NC(=O)C[C@H]1CCc2sc3ncnc(O[C@H]4CC[C@H](N5CCOCC5)CC4)c3c21 [Compound I-67]", "500 to 1000 nM"),
]

###

# tested system: IRAK4 (Homo sapiens, UniProt Q9NWZ3)

# molecule, IC50
records = [
    ("CN(C)[C@H]1CC[C@H](Oc2ncnc3sc4c(c23)C(CCO)CC4)CC1 (stereo partly shown) [Compound I-21]", "< 5 µM"),
    ("NC(=O)C(=O)C[C@H]1CCc2sc3ncnc(OC4CCC(N5CCOCC5)CC4)c3c21 (stereo partly shown) [Compound I-213]", "< 5 µM"),
    ("CN(C)[C@H]1CC[C@H](Oc2ncnc3sc4c(c23)[C@@H](C[C@H](O)C2CCCO2)CC4)CC1 (stereo partly shown) [Compound I-89]", "< 5 µM"),
    ("CC[C@@H](C[C@H]1CCc2sc3ncnc(O[C@H]4CC[C@H](N(C)C)CC4)c3c21)OC [Compound I-119]", "< 5 µM"),
    ("CCNC(=O)C[C@@H]1CCc2sc3ncnc(O[C@H]4CC[C@H](N(C)C)CC4)c3c21 [Compound I-36]", "> 50 µM"),
    ("CN(C)[C@H]1CC[C@H](Oc2ncnc3sc4c(c23)CN(S(C)(=O)=O)CC4)CC1 [Compound I-168]", "< 5 µM"),
    ("OC[C@@H]1CCc2sc3ncnc(O[C@H]4CC[C@H](N5CCOCC5)CC4)c3c2C1 [Compound I-215]", "< 5 µM"),
    ("CN(C)[C@H]1CC[C@H](Oc2nc(Nc3ccc(N4CCNCC4)cc3)nc3sc4c(c23)C(CC(N)=O)CC4)CC1 (mixture of isomers) [Compound I-205]", "< 5 µM"),
    ("CN(C)[C@H]1CC[C@H](Oc2ncnc3sc4c(c23)CN(C(=O)CCCO)CC4)CC1 [Compound I-190]", "20 to 50 µM"),
    ("CN(CCO)C(=O)CC1CCc2sc3ncnc(N[C@H]4CC[C@H](N(C)C)CC4)c3c21 (stereo partly shown) [Compound I-30]", "20 to 50 µM"),
    ("NC(=O)[C@H](O)C[C@H]1CCc2sc3ncnc(O[C@H]4CC[C@H](N5CCCCC5)CC4)c3c21 [Compound I-218]", "< 5 µM"),
    ("NC(=O)C[C@H]1CCc2sc3ncnc(O[C@H]4CC[C@@H](N5CCNC(=O)C5)CC4)c3c21 [Compound I-157]", "< 5 µM"),
    ("CN(C)[C@H]1CC[C@H](Nc2ncnc3sc4c(c23)C(C(=O)NCc2ccccc2)CC4)CC1 (stereo partly shown) [Compound I-24]", "20 to 50 µM"),
    ("NC(=O)[C@@H](O)C[C@H]1CCc2sc3ncnc(O[C@H]4CC[C@H](N5CCCCC5)CC4)c3c21 [Compound I-217]", "< 5 µM"),
    ("CN(C)[C@H]1CC[C@H](Nc2ncnc3sc4c(c23)[C@@H](CC(N)=O)CC4)CC1 [Compound I-99]", "< 5 µM"),
    ("CC[C@@H](O)C[C@H]1CCc2sc3ncnc(O[C@H]4CC[C@H](N(C)CC(=O)N5CCCC5)CC4)c3c21 [Compound I-71]", "< 5 µM"),
]

###

The following compounds are shown together with reported pIC50 values.
# tested system: IRAK4 (Homo sapiens)
# Sequence (Q9NWZ3 1-460): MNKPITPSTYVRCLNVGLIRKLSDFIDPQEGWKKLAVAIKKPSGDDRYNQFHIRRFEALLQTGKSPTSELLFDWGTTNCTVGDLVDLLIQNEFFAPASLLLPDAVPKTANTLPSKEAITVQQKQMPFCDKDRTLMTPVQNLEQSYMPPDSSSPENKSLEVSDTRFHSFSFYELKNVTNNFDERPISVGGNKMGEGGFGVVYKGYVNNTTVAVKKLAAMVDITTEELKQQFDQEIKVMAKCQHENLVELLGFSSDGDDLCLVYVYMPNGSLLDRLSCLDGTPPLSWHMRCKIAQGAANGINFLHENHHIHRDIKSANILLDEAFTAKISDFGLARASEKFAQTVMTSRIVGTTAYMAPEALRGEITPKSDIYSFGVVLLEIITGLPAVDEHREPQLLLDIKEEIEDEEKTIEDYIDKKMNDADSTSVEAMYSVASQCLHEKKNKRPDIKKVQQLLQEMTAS
pIC50: −log10 of the molar value.
observed property: pIC50

# compound, value
data = [
    ("CN(C)[C@H]1CC[C@H](Nc2ncnc3sc4c(c23)C(C(=O)NCCCO)CC4)CC1 (some centres unmarked)", "4.30 to 4.70"),
    ("CN(C)[C@H]1CC[C@H](Nc2ncnc3sc4c(c23)C(CC(=O)N2CC[C@H](O)C2)CC4)CC1 (some centres unmarked)", "< 4.30"),
    ("OCC[C@@H]1CCc2sc3ncnc(O[C@H]4CC[C@H](N5CCOCC5)CC4)c3c2C1", "> 5.30"),
    ("NC(=O)C[C@H]1CCc2sc3ncnc(O[C@H]4CC[C@H](N5CCCC5)CC4)c3c21", "> 5.30"),
    ("CC(=O)N1CCc2sc3ncnc(O[C@H]4CC[C@H](N(C)C)CC4)c3c2C1", "> 5.30"),
    ("CN(C)[C@H]1CC[C@H](Oc2ncnc3sc4c(c23)[C@@H](CCC#N)CC4)CC1", "> 5.30"),
    ("CN1Cc2sc3ncnc(O[C@H]4CC[C@H](N5CCOCC5)CC4)c3c2C1", "4.70 to 5.30"),
    ("NC(=O)[C@@H]1CCc2sc3ncnc(N[C@H]4CC[C@H](N5CCOCC5)CC4)c3c2C1", "> 5.30"),
]

###

# Tested on: THP-1 cells
# method summary: LPS induced cytokine (TNFα and IL8) production assay in THP-1 cells
# Type: cell-based
# test parameters: Homo sapiens, 300 ng/mL LPS, read-out: TNFα production IC50
observed property: IC50

# compound, value
measured = [
    ("CN[C@H]1CC[C@H](Oc2ncnc3sc4c(c23)[C@@H](C[C@H](O)C(N)=O)CC4)CC1", "0.5 to 1 µM"),
    ("NC(=O)C[C@H]1CCc2sc3ncnc(O[C@H]4CC[C@H](N5CCOCC5)CC4)c3c21", "0.5 to 1 µM"),
    ("CN(C)[C@H]1CC[C@H](Oc2ncnc3sc4c(c23)C[C@H](CCO)CC4)CC1", "0.5 to 1 µM"),
    ("NC(=O)[C@H](O)C[C@H]1CCc2sc3ncnc(O[C@H]4CC[C@H](N5CCOCC5)CC4)c3c21", "1 to 5 µM"),
    ("CCN[C@H]1CC[C@H](Oc2ncnc3sc4c(c23)[C@@H](CC(N)=O)CC4)CC1", "0.5 to 1 µM"),
    ("NC(=O)C[C@H]1CCc2sc3ncnc(O[C@H]4CC[C@H](N5CCC(F)(F)CC5)CC4)c3c21", "≤ 0.5 µM"),
    ("CN(C)[C@H]1CC[C@H](Oc2ncnc3sc4c(c23)[C@@H](C[C@@H](O)C2CCCO2)CC4)CC1 (stereo partly drawn)", "1 to 5 µM"),
    ("C[C@H](O)C[C@H]1CCc2sc3ncnc(O[C@H]4CC[C@H](N(C)C)CC4)c3c21", "1 to 5 µM"),
    ("C[C@@H](O)C[C@H]1CCc2sc3ncnc(O[C@H]4CC[C@H](N(C)CC(=O)N5CCCC5)CC4)c3c21", "0.5 to 1 µM"),
    ("NC(=O)C[C@H]1CCc2sc3ncnc(O[C@H]4CC[C@H](N5CCCC5)CC4)c3c21", "0.5 to 1 µM"),
    ("C[C@H](O)C[C@H]1CCc2sc3ncnc(O[C@H]4CC[C@H](N5CCOCC5)CC4)c3c21", "0.5 to 1 µM"),
    ("CN(CC(=O)N1CCCC1)[C@H]1CC[C@H](Oc2ncnc3sc4c(c23)[C@@H](CCO)CC4)CC1", "1 to 5 µM"),
    ("CN(C)[C@H]1CC[C@H](Oc2ncnc3sc4c(c23)[C@@H](CCC(N)=O)CC4)CC1", "0.5 to 1 µM"),
    ("CN(CC(=O)N1CCCC1)[C@H]1CC[C@H](Oc2ncnc3sc4c(c23)[C@@H](C[C@H](O)C(N)=O)CC4)CC1", "1 to 5 µM"),
    ("NC(=O)C(O)C[C@H]1CCc2sc3ncnc(O[C@H]4CC[C@H](N5CCOCC5)CC4)c3c21 (mixture of isomers)", "≤ 0.5 µM"),
]

Numbers sourced from patent US20160193216A1.
